FYI, the data here is from patent US20250027068.

- TARGET ENTITY: pooled human IgG
Reported Enzyme Activity Endpoint Assay: IgG values for a set of proteins
ENDPOINT: Enzyme Activity Endpoint Assay: IgG (ng/µL)

| PROTEIN | ENDPOINT | RECORDED NUMBER |
| --- | --- | --- |
| PRT-50 (protein) MANQEIRYSEVTPYHVTSVWTKGVTPPANFTQGEDVFHAPYVANQGWYDINKTFNGKDDLLCGAATAGNMLHWWFDQNKEQIERYLKEHPEKGKINFNGEQMFDVKEAIDTKNNQTDSKLFEYFKEKAFPYLSTKHLGVFPDRVLDMFINGYRLSLTNHGPTPVKEGSKDPRGGFFDDVFGRGDQSKLLTSRHDFKEKNLEEISDLIKKELTEGKALGLSHTYANVRINHVINLWGADFDSNGNLKAIYVTDSDSNASVGMKKYFVGVNSAGKVAISAKEIKEDNIGAQVLGLFTLSTGQDSWNQTN | Enzyme Activity Endpoint Assay: IgG | 135 |
| PRT-552 (protein) MANQEIRYSEETPKTITSVWTKGVTPPTDFIQNEDVLHAPYIANQGWYDITKTFNGKDDLLCGAATAGNMLHWWFDQNKEEIENYLKKHPEKQKINFNGEQMFDVKEAIDTKDSQTDSALFEYFKDKAFPYLSTKHLGVFPDHVIDMFINGYRLSLTNHGPTPVKRGTKDPRGGIFDAVFTRGDQSKLLTARHDFKEKTLNEISDLIKQELTEGKALGLSHTYANVRINHVINLWGADFNSEGNLEAIYVTDSDSNASIGMKKYYVGVNAAGKVAISAKEIEGDNIGAQVLGLFTLSTGQDIWNQTNLEHHHHHH | Enzyme Activity Endpoint Assay: IgG | 45 |
